Biological target: T1, MDM2 (res 2-125) (UniProt Q00987 2-125)
T1 construct: range 2-125
T1 sequence (Q00987 2-125 limits assumed): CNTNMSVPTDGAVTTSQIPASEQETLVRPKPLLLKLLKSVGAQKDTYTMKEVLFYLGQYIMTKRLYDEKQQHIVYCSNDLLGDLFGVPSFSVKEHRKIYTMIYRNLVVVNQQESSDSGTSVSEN
Assay: fluorescence anisotropy titration, MDM2 (res 2-125) titrated into the peptide, quadratic 1:1 fit with linear drift term; unit from the axis MDM2, uM
Starred links: 1 amine or outer side, 2 acyl side, 3 side chain; linkers in the order of their positions; H or OH if unused. Positions of bridges follow the written chain, without caps; N, C: chain ends. No end group written: not given here. TBMB = c1c(C[*:1])cc(C[*:3])cc1C[*:2]
READOUT NAME: Kd (nM)
Write the number in nM without appending the unit.

What measured Kd goes with ACSDRFRNCVRFGWTCG (linker 2-9-16 via TBMB, also called PK15L1-PEP48L1 bicyclic peptide; dual specific peptide comprising loops from PEP48 and PK15) [PK15L1-PEP48L1 bicyclic] ?
1560
